assay: Quantitative High-Throughput drug screen in 47 multiple myeloma cell lines against the NCATS MIPE library collection: INA6_PLB cell viability assay (AID 1918965; note: nearly all actives have a fitted effect of over 55% in size); details: INA6 myeloma viability, CellTiter-Glo ATP luminescence, 48 h; series mostly up to 45.8 µM
Inconclusive results are not listed. The source made the active and inactive calls. Calls come from the whole dose curve; as a rule, active = well fitted cell-killing curve with a large enough effect; inconclusive = small, poorly fitted or top-dose-only effect, or effect the other way; inactive = no such curve, though single readings can be large or run the other way.
Respond only with the outcome that fits, drawn from true (1) = active, false (0) = inactive

Task: What call does the record list for CNCC[C@H](Oc1cccc2ccccc12)c1cccs1 ?
Result: true (1)

Task: What call does the record list for C[C@@H]1C[C@H]2[C@@H]3CCC4=CC(=O)C=C[C@]4(C)[C@@]3(Cl)[C@@H](O)C[C@]2(C)[C@@]1(OC(=O)c1ccco1)C(=O)CCl ?
Result: true (1)

Task: What call does the record list for CC(=O)Oc1ccccc1C(=O)Nc1ncc([N+](=O)[O-])s1 ?
Result: true (1)

Task: What call does the record list for CC(C)(Sc1cc(C(C)(C)C)c(O)c(C(C)(C)C)c1)Sc1cc(C(C)(C)C)c(O)c(C(C)(C)C)c1 ?
Result: true (1)

Task: What call does the record list for CC1=CC(=O)c2ccccc2C1=O ?
Result: true (1)

Others:
Task: What call does the record list for CCOC(=O)c1ccc(OC(=O)CCCCCN=C(N)N)cc1 ?
Result: false (0)

Task: What call does the record list for NC1(c2ccc(-c3nc4ccn5c(=O)[nH]nc5c4cc3-c3ccccc3)cc2)CCC1 ?
Result: true (1)

Task: What call does the record list for O[C@@H](CNC[C@H](O)[C@H]1CCc2cc(F)ccc2O1)[C@@H]1CCc2cc(F)ccc2O1 ?
Result: true (1)

Task: What call does the record list for Cc1noc(NS(=O)(=O)c2ccc(N)cc2)c1C ?
Result: false (0)

====

test: qHTS of pediatric cancer cell lines to identify multiple opportunities for drug repurposing: Confirmatory screen for BT-12 cells (AID 1347112); details: BT-12 rhabdoid tumor cells, viability; series mostly up to 45.9 µM;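 note: viability read after 48 h of compound exposure; nearly all actives have a fitted effect of over 55% in size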
Results filed as inconclusive are left out. The source made the active and inactive calls. Calls come from the whole dose curve; as a rule, active = well fitted cell-killing curve with a large enough effect; inconclusive = small, poorly fitted or top-dose-only effect; inactive = flat fitted curve, though single readings scatter.
Respond only with the outcome that fits, drawn from TRUE = active, FALSE = inactive

Task: What call does the record list for COC(=O)Nc1nc2ccc(C(=O)c3ccccc3)cc2[nH]1 ?
Result: TRUE

Task: What call does the record list for CCC(=O)O[C@]1(C(=O)CCl)[C@@H](C)C[C@H]2[C@@H]3CCC4=CC(=O)C=C[C@]4(C)[C@@]3(F)[C@@H](O)C[C@@]21C ?
Result: FALSE

Task: What call does the record list for C[C@@H]1C[C@H]2[C@@H]3CCC4=CC(=O)C=C[C@]4(C)[C@@]3(Cl)[C@@H](O)C[C@]2(C)[C@@]1(OC(=O)c1ccco1)C(=O)CCl ?
Result: TRUE

Task: What call does the record list for COc1cc(NCc2ccc3nc(N)nc(N)c3c2C)cc(OC)c1OC ?
Result: TRUE

Task: What call does the record list for CC(C)(C#N)c1cc(Cn2cncn2)cc(C(C)(C)C#N)c1 ?
Result: FALSE

Task: What call does the record list for COc1ccc(C(=O)CC(=O)c2ccc(C(C)(C)C)cc2)cc1 ?
Result: FALSE

Task: What call does the record list for S=P(N1CC1)(N1CC1)N1CC1 ?
Result: FALSE

Task: What call does the record list for Cn1nnc2c(C(N)=O)ncn2c1=O ?
Result: FALSE

Others:
Task: What call does the record list for CN(C)c1ccc(C(=C2C=CC(=[N+](C)C)C=C2)c2ccc(N(C)C)cc2)cc1 ?
Result: TRUE

Task: What call does the record list for Nc1nc(N)c2nc(CNc3ccc(C(=O)NC(CCC(=O)O)C(=O)O)cc3)cnc2n1 (stereo unspecified) ?
Result: TRUE

Task: What call does the record list for O=NN(CCCl)C(=O)NC1CCCCC1 ?
Result: FALSE

====

test: Quantitative High-Throughput drug screen in 47 multiple myeloma cell lines against the NCATS MIPE library collection: KMS21BM_JCRB cell viability assay (AID 1918974); conditions: ATP luminescence, 48 h
Results filed as inconclusive are left out. Active and inactive are the calls of the source. Calls follow the shape of the dose curve; as a rule, active = well fitted cell-killing curve with a large enough effect; inconclusive = small, poorly fitted or top-dose-only effect, or effect the other way; inactive = no such curve, though single readings can be large or run the other way.
Respond only with the outcome that fits, drawn from Yes (active), No (inactive)

Reference set (4 entries):
Task: What call does the record list for COC(=O)Nc1nc2ccc(Sc3ccccc3)cc2[nH]1 ?
Result: Yes

Task: What call does the record list for CC(C(=O)O)c1ccc2c(c1)CC(=O)c1ccccc1S2 (stereo unspecified) ?
Result: Yes

Task: What call does the record list for COc1cc([C@@H]2c3cc4c(cc3[C@H](O)[C@H]3COC(=O)[C@H]23)OCO4)cc(OC)c1OC ?
Result: No

Task: What call does the record list for NS(=O)(=O)c1cc2c(cc1Cl)NC(C(Cl)Cl)NS2(=O)=O (stereo unspecified) ?
Result: No

Others:
Task: What call does the record list for NC(N)=NC(N)=NCCc1ccccc1 ?
Result: Yes

Task: What call does the record list for Cc1cc(NS(=O)(=O)c2ccc(N)cc2)no1 ?
Result: No

Task: What call does the record list for C1CCC(C(CC2CCCCN2)C2CCCCC2)CC1 (stereo unspecified) ?
Result: Yes

====

assay: Quantitative High-Throughput drug screen in 47 multiple myeloma cell lines against the NCATS MIPE library collection: KMS28PE_JCRB cell viability assay (AID 1918983); conditions: KMS28PE multiple myeloma viability, CellTiter-Glo ATP, 48 h; series mostly up to 45.8 µM; note: nearly all actives have a fitted effect of over 35% in size; note: potency is the fitted concentration of half-maximal effect
Results filed as inconclusive are left out. Active and inactive are the calls of the source. Calls come from the whole dose curve; as a rule, active = well fitted cell-killing curve with a large enough effect; inconclusive = small, poorly fitted or top-dose-only effect, or effect the other way; inactive = no such curve, though single readings can be large or run the other way.
OBSERVABLE: Potency

Sample records with Potency:
Task: Fill in the blank: the reported Potency of CC(=O)Oc1ccccc1C(=O)Nc1ncc([N+](=O)[O-])s1 is ____.
Result: 38.2 µM (active)

Task: Fill in the blank: the reported Potency of O=C(NCC1CN(c2ccc(N3CCOCC3=O)cc2)C(=O)O1)c1ccc(Cl)s1 (configuration not stated) is ____.
Result: inactive

Task: Fill in the blank: the reported Potency of NC(=O)c1ccc2[nH]ccc2c1 is ____.
Result: inactive

Task: Fill in the blank: the reported Potency of O=S(=O)(O)CCS is ____.
Result: inactive

Task: Fill in the blank: the reported Potency of CCn1cc(C(=O)O)c(=O)c2cc(F)c(N3CCN(C)CC3)cc21 is ____.
Result: inactive

Task: Fill in the blank: the reported Potency of Cc1noc(NS(=O)(=O)c2ccc(N)cc2)c1C is ____.
Result: inactive

Here is another compound to look at.
Task: Fill in the blank: the reported Potency of C1CCC(C(CC2CCCCN2)C2CCCCC2)CC1 (configuration not stated) is ____.
Result: 18.7 µM (active)

====

Test system: CP203
Experiment: qHTS profiling for inhibitors of Plasmodium falciparum proliferation (AID 504749); note: nearly all actives have a fitted effect of over 60% in size; note: potency is the fitted concentration of half-maximal effect
Settings: P. falciparum in erythrocytes, SYBR Green DNA, 72 h; series mostly up to 28.7 µM
Description: NIH National Institute of Allergy and Infectious Diseases [NIAID] NIH Chemical Genomics Center [NCGC] […] Because mature erythrocytes lack DNA, only Plasmodium-derived DNA is detected. NCGC Assay Protocol Summary: The SYBR Green viability assay was adapted from a method described previously (Plouffe et al., 2008). […] The following morning, fluorescence intensity at 485(14) nm excitation and 535(25) nm emission wavelengths was measured on an EnVision (Perkin Elmer) plate reader. […]
Records with an inconclusive call do not appear. Activity calls are given as the source filed them. The call rests on the fitted dose curve; in most records, active means well fitted inhibition curve with a large enough effect; inconclusive means small, poorly fitted or top-dose-only effect; inactive means flat fitted curve, though single readings scatter.
OBSERVABLE: Potency

Sample records with Potency:
Task: Any idea what Potency came out for CCn1cc(C(=O)O)c(=O)c2cc(F)c(N3CCNCC3)nc21 on CP203?
Result: inactive

Task: Any idea what Potency came out for O=c1oc2c(O)c(O)cc3c(=O)oc4c(O)c(O)cc1c4c23 on CP203?
Result: inactive

Task: Any idea what Potency came out for NC(=O)N1c2ccccc2CC(=O)c2ccccc21 on CP203?
Result: inactive

Task: Any idea what Potency came out for CCOCC(O)COc1ccc(NC(=O)CC[S+](C)C)cc1 (stereo unspecified) on CP203?
Result: inactive

Task: Any idea what Potency came out for C[C@@H](NCCCc1cccc(C(F)(F)F)c1)c1cccc2ccccc12 on CP203?
Result: 10.7 µM (active)

Here is another compound to look at.
Task: Any idea what Potency came out for COc1cc(NS(=O)(=O)c2ccc(N)cc2)nc(OC)n1 on CP203?
Result: inactive

====

Below: a set of entries, each annotated with reported z-score.
assay: qHTS for identification of novel therapeutic agents for treatment of microphthalmiaassociated transcription factor (MiT) renal cell carcinoma (RCC) (AID 1963991); conditions: TFE3-RCC viability, CellTiter-Glo, 48 h; measured here: UOK124 Z-AUC; stronger effect = lower value;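 note: curves scaled with 100% = DMSO viability and 0% = empty wells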
Results filed as inconclusive are left out.
Response field accepts a number only; no unit should be typed.

Task: Fill in the blank: the reported z-score of CCn1cc(C(=O)O)c(=O)c2cc(F)c(N3CCN(C)CC3)cc21 is ____.
Result: 0.298

Task: Fill in the blank: the reported z-score of O=NN(CCCl)C(=O)NC1CCCCC1 is ____.
Result: 1.51

Task: Fill in the blank: the reported z-score of CCOC(=O)c1ccc(C#Cc2ccc3c(c2)C(C)(C)CCS3)nc1 is ____.
Result: 0.696

Task: Fill in the blank: the reported z-score of CN(CCOc1ccc(CC2SC(=O)NC2=O)cc1)c1ccccn1 (configuration not stated) is ____.
Result: 0.588

Task: Fill in the blank: the reported z-score of CN(C)CCc1c[nH]c2ccc(C[C@H]3COC(=O)N3)cc12 is ____.
Result: -0.14

Task: Fill in the blank: the reported z-score of CCOc1cc(N)c(Cl)cc1C(=O)NCC1CN(Cc2ccc(F)cc2)CCO1 (configuration not stated) is ____.
Result: 0.779

Task: Fill in the blank: the reported z-score of COc1ncnc(NS(=O)(=O)c2ccc(N)cc2)c1OC is ____.
Result: 0.339

Task: Fill in the blank: the reported z-score of O=C(O)c1cn(C2CC2)c2cc(N3CCNCC3)c(F)cc2c1=O is ____.
Result: 0.661

Task: Fill in the blank: the reported z-score of COc1ccccc1OCC(O)COC(N)=O (configuration not stated) is ____.
Result: 0.974

Task: Fill in the blank: the reported z-score of COc1c(N2CCNC(C)C2)c(F)cc2c(=O)c(C(=O)O)cn(C3CC3)c12 (configuration not stated) is ____.
Result: 0.931

Task: Fill in the blank: the reported z-score of Cc1oc(=O)oc1CN1CCN(c2cc3c(cc2F)c(=O)c(C(=O)O)c2n3C(C)S2)CC1 (configuration not stated) is ____.
Result: 0.785

Task: Fill in the blank: the reported z-score of CCCc1cc(C(N)=S)ccn1 is ____.
Result: 0.537

Cited source for all entries: PubChem BioAssay (NCATS)
